# measurement_notes: AP1 Signaling Pathway (AID 357);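 further: ME-180 reporter cells stimulated with EGF at its EC50 level; on the % scale 0 is the no-effect control and ±100 the full control effect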
# test_parameters: ME-180 (cervical carcinoma) AP-1-bla reporter, EGF-induced, beta-lactamase ratio, 5 h; at 17.2 µM (top of the series) unless noted
Records with an inconclusive call do not appear. Active and inactive are the calls of the source. The call rests on the fitted dose curve; in most records, active means well fitted curve in either direction with a large enough effect (not every such curve was filed as active); inconclusive means small, poorly fitted or top-dose-only effect, or another doubt; inactive means flat fitted curve, though single readings scatter.
observable: activity change, negative = inhibition

Cn1cc(C(=O)NCN2CCCCC2)c2ccccc21; -2.91% (inactive)
Cc1cc(C)n(C(=O)CSc2nc3ccccc3o2)n1; 13.4% (inactive)
Cc1ccc2c(=O)c(CN(C)C3CCN(C)CC3)c(C)[nH]c2c1C; 0.184% (inactive)
CCCc1nc(N2CCCC2)c(C#N)c2c1CCCC2; -2.98% (inactive)

Note to self: activity change, negative = inhibition recorded for `c1coc(-c2nnc3sc(C4CCCCC4)nn23)c1` was -14.7% (inactive)

Note to self: activity change, negative = inhibition recorded for `CCCCCSc1nc(C)c(CC(=O)O)c(=O)[nH]1` was -1.76% (inactive)

Note to self: activity change, negative = inhibition recorded for `Cc1ccc(-n2ncc3c(NCCCOC(C)C)ncnc32)c(C)c1` was -18.8% (inactive)

Note to self: activity change, negative = inhibition recorded for Cc1ccccc1N1C(=O)C2ON(c3ccccc3)C(c3ccncc3)C2C1=O (configuration not stated) was 5.78% (inactive)

Note to self: activity change, negative = inhibition recorded for `CCOC(=O)N1CCN(/C=C(\C#N)c2nc3ccccc3s2)CC1` was -15.9% (inactive)

Note to self: activity change, negative = inhibition recorded for `CC(C)c1cc(NCCN2CCOCC2)n2c(nc3ccccc32)c1C#N` was -4.92% (inactive)

Note to self: activity change, negative = inhibition recorded for Cc1cc(NCC2CCCO2)n2c(nc3ccccc32)c1C#N (configuration not stated) was -1.4% (inactive)

Note to self: activity change, negative = inhibition recorded for `CC(C)(C)c1ccc(C(=O)C=[N+]=[N-])cc1` was 0.479% (inactive)

###

# measurement_notes: Cellular Toxicity (caspase-3) SK-N-SH (AID 661);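 further: cells exposed to compound for 16 hours; 0% = DMSO basal and 100% = 10 µM staurosporine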
# test_parameters: SK-N-SH caspase-3 activation, qHTS; at 91.7 µM (top of the series), DMSO as zero, staurosporine as full
Calls of active or inactive are those of the source. The call rests on the fitted dose curve; in most records, active means well fitted activation curve with a large enough effect; inconclusive means small, poorly fitted or top-dose-only effect; inactive means flat fitted curve, though single readings scatter.
A correct response names exactly one class from true = active, false = inactive

Check out these entries, answers already filled in.
CCC(C)Nc1ccc(NC(C)CC)cc1 (stereo not given); false
CO[C@H]1/C=C/O[C@@]2(C)Oc3c(C)c(O)c4c(O)c(c5c(c4c3C2=O)NC2(CCN(CC(C)C)CC2)N=5)=NC(=O)/C(C)=C\C=C\[C@H](C)[C@H](O)[C@@H](C)[C@@H](O)[C@@H](C)[C@H](OC(C)=O)[C@@H]1C; false
O=C1OC2(c3cc(Br)c(O)c(Br)c3Oc3c2cc(Br)c(O)c3Br)c2c(Cl)c(Cl)c(Cl)c(Cl)c21; false

Lookup: Just curious, what result did `C/C=C1\C(=O)C[C@H]2[C@@H]3CCC4=CC(=O)CC[C@]4(C)[C@H]3CC[C@]12C` get here?
Found: false

Lookup: Just curious, what result did `CCCCCC/C(C=O)=C\c1ccccc1` get here?
Found: false

Lookup: Just curious, what result did `C=C(C)c1ccccc1` get here?
Found: false

###

# study_target: Cytochrome P450 2C9 (Homo sapiens) (UniProt P11712)
# Sequence (P11712 whole entry, looked up): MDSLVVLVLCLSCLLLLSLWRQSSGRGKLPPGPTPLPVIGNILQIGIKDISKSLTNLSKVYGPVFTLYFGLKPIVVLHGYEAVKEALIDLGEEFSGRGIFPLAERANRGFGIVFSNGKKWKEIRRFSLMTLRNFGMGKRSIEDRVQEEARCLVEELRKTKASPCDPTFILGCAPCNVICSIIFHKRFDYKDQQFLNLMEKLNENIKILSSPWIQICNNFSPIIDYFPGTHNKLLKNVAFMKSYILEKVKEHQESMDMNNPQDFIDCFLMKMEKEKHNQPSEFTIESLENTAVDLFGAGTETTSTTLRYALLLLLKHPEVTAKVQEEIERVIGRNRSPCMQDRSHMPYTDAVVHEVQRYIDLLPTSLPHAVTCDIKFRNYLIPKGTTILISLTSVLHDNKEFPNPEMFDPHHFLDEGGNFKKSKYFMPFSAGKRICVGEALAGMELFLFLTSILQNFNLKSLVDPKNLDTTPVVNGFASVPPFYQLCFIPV
# measurement_notes: qHTS Assay for Inhibitors and Substrates of Cytochrome P450 2C9 (AID 883); further: nearly all actives have a fitted effect of over 60% in size; further: potency means the concentration at half of the fitted maximal effect
# test_parameters: recombinant CYP2C9, luciferin-H luminescence, 60 min; series mostly up to 57.1 µM
Records with an inconclusive call do not appear. The source made the active and inactive calls. The call rests on the fitted dose curve; in most records, active means well fitted inhibition curve with a large enough effect; inconclusive means small, poorly fitted or top-dose-only effect; inactive means no such curve, though single readings can be large or run the other way.
observable: Potency

Use the examples below as a reference point.
CC(C)C[C@@H](CC(=O)N[C@@H](CCCN)CC(=O)N[C@@H]1CCNC[C@H]1C(=O)N[C@H](CC(=O)N[C@@H](CCC(=O)O)CC(=O)O)Cc1ccccc1)NC(=O)[C@@H]1CCCC[C@H]1N; inactive
OC[C@@H]1O[C@@H](n2cnc3c(NCc4ccco4)ncnc32)[C@H](O)[C@H]1O; inactive
CC(=O)N[C@@H](c1ccccc1)[C@]1(C)C[C@H]1[C@@H](C)C(=O)Nc1ccc2ccccc2c1; 6.31 µM (active)
NCCC[C@@H](CC(=O)N[C@@H]1CCCC[C@H]1C(=O)N[C@H](CC(=O)N[C@@H](CCC(=O)O)CC(=O)O)Cc1c[nH]c2ccccc12)NC(=O)C[C@H](Cc1c[nH]c2ccccc12)NC(=O)[C@@H]1CCCC[C@H]1N; inactive
COC(=O)[C@@]1(Cc2ccc(F)cc2)[C@H]2c3cc(C(=O)N4CCCC4)n(Cc4ccccc4)c3C[C@H]2CN1C(=O)c1ccccc1; 3.98 µM (active)

Proceeding to the next compound to report its Potency.
Note to self: Potency recorded for `Cc1ccc(C(=O)[C@@H]2[C@@H]3[C@@H](C(=O)[C@@H]4OC[C@H]3O4)[C@@H]3C=Cc4ccccc4N23)cc1` was 10 µM (active)

Origin of the recorded values: PubChem BioAssay (NCATS)
